// reported melting point for each item listed

COc1ccccc1C=C1NC(=O)NC1=O; 174 to 179 °C
COc1ccc2c(c1N)C(CCNC(C)=O)CC2 (stereo not given); 94 to 97 °C
O=C(N[C@H](Cc1cccc(OC(F)(F)C(F)F)c1)[C@@H](O)c1ccc(F)nc1)c1cccc2c1C=CCCC2 (racemic); 140 to 142 °C
CCc1ccc(-c2ccc(I)cc2)cc1; 145 to 149 °C
CC(C)(C)c1cc(C=Cc2cc(C=Cc3cc(C(C)(C)C)cc(C(C)(C)C)c3)cc(C=C(Br)Br)c2)cc(C(C)(C)C)c1; 148 to 150 °C

Output melting point of COc1nc(-c2ccccc2)c(-c2ccc(=O)n(C(C)C)n2)nc1C#N 170 to 172 °C

---

// reported melting point for each item listed

Solved cases (3 shown):
CC1c2onc(-c3ccc(Cl)cc3)c2CCC1(C)C(=O)O (stereo not given); 165 to 170 °C
CCCCc1nc(C)c(CC(=S)N2CCCC2)c(=O)n1Cc1ccc(-c2ccccc2-c2nnn[nH]2)cc1; 94.4 to 97.3 °C
CCOc1ccc(S(=O)(=O)N(Cc2ccc(C#N)cc2)[C@@H](CC)c2ccccc2)cc1; 97 to 98 °C

Output melting point of CCOC(=O)C(=CNC1CC1)C(=O)c1cc(F)c(F)c(OC)c1F 56 to 58 °C

Output melting point of CC(CNc1cccc(C(F)(F)F)c1)Nc1cccc(C(F)(F)F)c1 (stereo not given) 116 to 120 °C

---

property_label: melting point

COc1ccc(C=Cc2ccc(CBr)c(Cl)c2)c(Cl)c1; 106 to 108 °C

Output melting point of N#CC(c1cccc(F)c1)N1CCOCC1 (stereo not given) 74 to 75 °C

Output melting point of COc1ccc2c(c1)OCC(C(=O)O)O2 (stereo not given) 120 to 121 °C

Output melting point of Cc1oc(-c2ccccc2)nc1COc1ccc(CON=C2CC(C(=O)O)c3ccccc32)cc1 (stereo not given) 148 to 149 °C

---

// reported melting point for each item listed
Respond with the bare value in °C.

Solved cases (4 shown):
CC(C)(C)OC(=O)N1CCN(c2ccc3[nH]cc(Sc4ccccc4)c3c2)CC1; 174
O=C(O)c1c(C(F)(F)F)nc2ccccc2c1O; 262
FC(F)(F)c1ccc(Nc2nccc(-c3cccc(Cl)c3)n2)cc1; 202
O=CNCN1CCCCCC1=O; 48

Let's switch to this molecule now.
Output melting point of CN(C)C=Nc1sc(C=O)c(Br)c1C#N 220

---

// reported melting point for each item listed

COc1ccc(C(=O)c2ccc(Cl)nc2)c(O)c1; 138 to 139 °C
O=[N+]([O-])c1ccc(C23CCN(CC2)CC3)cc1; 130 to 135 °C
COc1ccc(Nc2ccc(CO)cc2)cc1; 110 °C
Clc1ccc(N2CCN(Cc3n[nH]c4c(Cl)cccc34)CC2)cc1; 152 to 154 °C
Nc1nc(N)nc(C2CC3CC2CC3c2nc(N)nc(N)n2)n1 (stereo unspecified); 317 to 324 °C

Output melting point of Nc1sc2c(c1C(=O)c1ccc(Br)c3ccccc13)CCC2 210 to 212 °C

Output melting point of CNc1cnc2ccc(Cl)cc2c1-c1ccccc1 139 to 140 °C

Output melting point of COC(=O)c1nn(Cc2ccc(Cl)cc2Cl)c2ccccc12 168 to 170 °C

Output melting point of COc1cccc2c1C(=O)c1c(OC)cc(C#N)cc1C2=O 266 to 268 °C

Output melting point of CSc1nc2cccccc-2n1 101 to 102 °C

Output melting point of CCS(=O)(=O)Nc1ccc(CN(CC2(c3ccccn3)CCCCC2)C(=O)Nc2c(C(C)C)cccc2C(C)C)cc1 209 °C

---

// reported melting point for each item listed

Solved cases (4 shown):
CCOC(Cc1ccc(OCc2nc(C(C)(C)C)oc2C)c(C)c1)C(=O)O (stereo not given); 95 to 97 °C
O=C(N[C@H]1CCCNC1=O)c1cccc(C(F)(F)F)c1; 148 to 150 °C
CSc1nn2c(Cl)cc(CN3CCOCC3)nc2c1S(=O)(=O)c1ccccc1; 174 to 176 °C
CC(C)N(CCCCOCC(=O)O)c1nnc(-c2ccccc2)c(-c2ccccc2)n1; 128 to 130 °C

Let's switch to this compound now.
Output melting point of O=C1NC(=O)C2(c3ccc4ccc(O)nc4n3)C=CC=CC12 (stereo not given) 370 °C

---

property_label: melting point

Solved cases (4 shown):
NS(=O)(=O)Oc1cccc(-n2cnc(-c3ccccc3)c2)c1; 209 to 211 °C
COC(=O)C[C@@H](N)c1ccc(NC(=O)Cc2ccc(NC(=O)Nc3ccccc3C)c(OC)c2)cc1; 189 to 191 °C
COc1ccc(C=C2C(=O)c3cc(O)ccc3OC2c2ccc(OC)cc2)cc1 (stereo not given); 199 to 201 °C
Cn1ccnc1Sc1ccc(F)cc1[N+](=O)[O-]; 123 to 126 °C

Output melting point of N#CC(=NOCF)C(=N)NCl 97 to 98 °C

Output melting point of OCCc1ccc(Nc2ncc3c(n2)-c2ccccc2C(c2ccc(F)c(F)c2)C3)cc1 (stereo not given) 170 to 172 °C

Output melting point of CCOC(=O)NCCc1cccc(-c2ccnc3c(Cl)cnn23)c1 100 to 102 °C

Output melting point of COc1ccc(-c2nc(C(=O)c3ccc([N+](=O)[O-])c(OC)c3)n3ccccc23)cc1 185 °C

Output melting point of CC(C)(C)c1cc(Nc2ccc(CCC(=O)O)cc2)cc(C(C)(C)C)c1O 140 to 142 °C

Output melting point of COc1cc(Oc2cccc(C)c2)nc(C(=O)Nc2ccc(C)cc2)c1 110 to 114 °C

---

// reported melting point for each item listed

Solved cases (8 shown):
CCCCCCC(C)(C)c1ccc(C2CC(=O)CC(=O)C2)c(OCc2ccccc2)c1; 102 to 103 °C
CC(C)NC(=O)c1nc(-c2ccccc2F)c(-c2ccc(=O)n(C(C)C)n2)s1; 129 to 130 °C
CN(Cc1ncc(C(F)(F)F)cc1Cl)C(=O)c1c(Cl)cccc1Cl; 83 to 84 °C
O=C(Nc1ccccc1C(c1ccc(O)cc1)c1ccc(O)cc1)C1CCCCC1; 220 to 223 °C
C[Si](C)(Oc1ccc(N)cc1)O[Si](C)(C)Oc1ccc(N)cc1; 56 to 57 °C
C=Cc1cn(-c2ccccn2)c2c1C(=O)CC(C)(C)C2; 150 to 154 °C
CCOC(=O)/C=C/c1c[nH]c(-c2cccs2)c1; 104 to 105 °C
COc1cc(OC)cc(-c2ncoc2-c2ccc(OC(F)(F)F)c(N)c2)c1; 119 to 120 °C

Let's switch to this compound now.
Output melting point of CCC(COS(C)(=O)=O)Nc1ccc(Cl)cc1[N+](=O)[O-] (stereo unspecified) 91 to 93 °C

---

property_label: melting point

Output melting point of Cc1c(Br)csc1-c1nc(-c2c(F)cccc2Cl)nn1C 111 to 112 °C

Output melting point of O=C(Nc1cccnc1)N1CCN(c2nc(-c3cccc(F)c3F)cs2)CC1 172 to 173 °C

Output melting point of CC(C)(C)NC(=O)[C@@H]1CC(=O)CN1C(=O)[C@@H](O)[C@H](Cc1ccccc1)NC(=O)[C@H](CC(N)=O)NC(=O)OCc1ccccc1 116 to 120 °C

Output melting point of C[C@H]1[C@H]2O[C@H]2C(S(=O)(=O)c2ccccc2)=C[C@H](C)[C@H]1O[Si](C)(C)C(C)(C)C 89 to 90 °C

Output melting point of CCCC(=O)NC[C@@H]1C[C@H]1c1cccn2nc(C)cc12 (relative stereo) 82 to 84 °C

Output melting point of O=S(=O)(CC(O)(CBr)c1ccccc1)c1ccccc1 (centres undefined) 91 °C

Output melting point of COC1=C(C(=O)NNC(=O)Cc2ccc(F)cc2)CN(C(C)C)C1=O 157 to 158 °C

Output melting point of COc1ccccc1C(CNc1c(C#N)cnn2cccc12)N1CCOCC1 (centres undefined) 157 °C

Output melting point of Cc1ccc(-c2n[nH]c3c2CCCC3)cc1 57.4 to 59.9 °C

---

// reported melting point for each item listed

Output melting point of CC(=O)OC1CC2=CCC3C4CCC(C(C)CCC=C(C)C)C4(C)CCC3C2(C)C(OC(C)=O)C1 (stereo unspecified) 133 to 134 °C

Output melting point of O=C(/C=C/c1ccc(C(F)(F)F)cc1)Nc1ccc2c(c1)NCC(CO)C2 (stereo unspecified) 176 to 179 °C

Output melting point of CC(=O)NC[C@H]1CN(c2ccc3c(c2)CS(=O)(=O)N3C)C(=O)O1 84 to 86 °C

Output melting point of Cc1cc2c3c(ccc2cc1C#N)OC(=O)C3(C)C 215 to 217 °C

---

property_label: melting point

Output melting point of CC(=O)Nc1cccc(Oc2ccn3nc(-c4ccccc4)c(-c4ccc(=O)n(C(C)C)n4)c3c2)c1 178 °C

Output melting point of CSc1ccc(C=C(C(=O)O)c2ccc(F)cc2)cc1 136 to 138 °C

Output melting point of CCCCN1CCC(n2nc(-c3c(-c4ccccc4)nn4ccccc34)ccc2=O)CC1 106 to 108 °C

Output melting point of CCOC(=O)/C=C/c1cc(OCc2ccccc2)ccc1OCC 124 to 125 °C

Output melting point of Nc1ccc(-c2ccc(C(=O)NC3CN4CCC3CC4)o2)cc1 (stereo not given) 103 to 113 °C

Output melting point of CCN(CC)CC1CCCCN1CC(=O)N1c2cc(Cl)ccc2C(=O)Nc2cccnc21 (stereo not given) 168 to 169 °C

Output melting point of Oc1ccc([C@H]2CC[C@@H](NCCOc3ccccc3)CC2)cc1 149 to 154 °C

Output melting point of CCOC(=O)n1cc(F)c(N)nc1=O 190 to 193 °C

Output melting point of CCOC(=O)c1ccc(OC(=O)c2cccc(C(=O)Oc3ccc(C(=O)OCC)cc3)c2)cc1 123 to 125 °C

Output melting point of CCOC(=O)C[C@@H](C)NC(=O)N[C@H]1CCN(c2ccc(C#N)cc2)C1=O 178 to 179 °C
